- Test system: asah1
- assayMethodText: Real-time quantitative PCR of PLsis marker gene expression
- Type: cell-based, human
- studyConditions: HepG2 cells, 24 hr exposure, relative value, control group = 1.0, GAPDH internal standard, n=3
measureName: expression variation rate asah1

Recorded results for 10 compounds are shown here.
[
  {
    "compound": "O=C(CCCN1CCC(O)(c2ccc(Cl)cc2)CC1)c1ccc(F)cc1 [haloperidol]",
    "systemTested": "asah1",
    "expression variation rate asah1": 0.77
  },
  {
    "compound": "CNCCC(Oc1ccc(C(F)(F)F)cc1)c1ccccc1 (stereo not shown) [fluoxetine]",
    "systemTested": "asah1",
    "expression variation rate asah1": 6.55
  },
  {
    "compound": "CN[C@H]1CC[C@@H](c2ccc(Cl)c(Cl)c2)c2ccccc21 [sertraline]",
    "systemTested": "asah1",
    "expression variation rate asah1": 3.08
  },
  {
    "compound": "CN(C)CCCN1c2ccccc2Sc2ccc(Cl)cc21 [chlorpromazine]",
    "systemTested": "asah1",
    "expression variation rate asah1": 1.29
  },
  {
    "compound": "CC1COc2c(N3CCN(C)CC3)c(F)cc3c(=O)c(C(=O)O)cn1c23 (stereo not shown) [ofloxacin]",
    "systemTested": "asah1",
    "expression variation rate asah1": 1.17
  },
  {
    "compound": "CN(C)CCCN1c2ccccc2CCc2ccccc21 [imipramine]",
    "systemTested": "asah1",
    "expression variation rate asah1": 4.52
  },
  {
    "compound": "CCN(CC)CCNC(=O)c1ccc(N)cc1 [procainamide]",
    "systemTested": "asah1",
    "expression variation rate asah1": 0.86
  },
  {
    "compound": "CC[C@H]1OC(=O)[C@H](C)[C@@H](O[C@H]2C[C@@](C)(OC)[C@@H](O)[C@H](C)O2)[C@H](C)[C@@H](O[C@@H]2O[C@H](C)C[C@H](N(C)C)[C@H]2O)[C@](C)(OC)C[C@@H](C)C(=O)[C@H](C)[C@@H](O)[C@]1(C)O [clarithromycin]",
    "systemTested": "asah1",
    "expression variation rate asah1": 1.55
  },
  {
    "compound": "CCCCc1oc2ccccc2c1C(=O)c1cc(I)c(OCCN(CC)CC)c(I)c1 [amiodarone]",
    "systemTested": "asah1",
    "expression variation rate asah1": 1.69
  },
  {
    "compound": "C1CCC(C(CC2CCCCN2)C2CCCCC2)CC1 (stereo not shown) [perhexiline]",
    "systemTested": "asah1",
    "expression variation rate asah1": 3.12
  }
]

(1) CN(C)CCCN1c2ccccc2CCc2ccc(Cl)cc21 [clomipramine]
(2) CN(C)C/C=C(/c1ccc(Br)cc1)c1cccnc1 [zimelidine]
(3) C=C[C@H]1C[N@@]2CC[C@H]1C[C@@H]2[C@@H](O)c1ccnc2ccc(OC)cc12 [quinidine]
(4) CC/C(=C(\c1ccccc1)c1ccc(OCCN(C)C)cc1)c1ccccc1 [tamoxifen]
Q. Hey, quick one: sort these by expression variation rate asah1, low to high? Would you mind listing the labels in the order requested?
A. 1, 3, 2, 4

(1) CSc1ccc2c(c1)N(CCC1CCCCN1C)c1ccccc1S2 (stereo not shown) [thioridazine]
(2) O=C(NCC1CCCCN1)c1cc(OCC(F)(F)F)ccc1OCC(F)(F)F (stereo not shown) [flecainide]
Q. // pick min by expression variation rate asah1: 1 , 2 Select an item and report its label.
A. 1
(1: 1.36, 2: 2.42)

(A) CC(C)NCC(O)c1ccc(NS(C)(=O)=O)cc1 (stereo not shown) [sotalol]
(B) CN1CCN(C(c2ccccc2)c2ccc(Cl)cc2)CC1 (stereo not shown) [chlorcyclizine]
Q. // returns A or B , whichever has the lower expression variation rate asah1 API: response body contains the label of the selected item.
A. A
(A: 1.39, B: 3.23)

(A) CC(C)N(CCC(C(N)=O)(c1ccccc1)c1ccccn1)C(C)C (stereo not shown) [disopyramide]
(B) CN(C)CCC=C1c2ccccc2CCc2ccccc21 [amitriptyline]
Q. Between A and B , which one shows the larger expression variation rate asah1 value? Your answer should be the label of the entry you select.
A. B
(B: 3.10, A: 1.85)
